test: yeast display, Sf9 membrane polyspecificity reagent, FACS + sequencing; frameworks hold sequencing errors
recordedMetric: polyreactivity (PSR sort gate)

Examples with their reported polyreactivity (PSR sort gate) follow.
>>> result("QVQLVESVGGLVQAGGSLRLSCAASGSTFYIYAMGWYRQAPGKERELVADINNSDSTYYADSVKGRFTISRDNAKITVYLQMYSLKPEDTAVYYCAAYDYYIGAYSYGGSDYDYWGQGTQVTVSS")
"low polyreactivity"
>>> result("QVQLVESGGGIVQAGGSLRLSCAATGFTFVYYAMGWYRQEPGKERELVAAISSRGGSTNYADSVKGRFTISRDNAKKTVYLQMNSLKPEDTAVYYCAARANTKKPYYYWGQGTQVTVSS")
"high polyreactivity"
>>> result("QVQLVESGGGLVQAGGSLRLSCAASGLIFGWYAMGWYRQAPGKERELVAAISWSGSRTNYADSVKGRFTISRDNAKNTVYLQMNSLKPEDTAVYYCAAGWGYSASRYGYWGQGTQVTVSS")
"high polyreactivity"
>>> result("QVQHVESGGGLVQAGGSLRLSCAASGSTFGYNPMGSYRQAPGKERELTNYADSVKGRFTISRDNAKNTVYLQMNSLKPEDTAVYYCNAQIDFGDPEKRAWGYDYWGQGTQVTVSS")
"low polyreactivity"

For the next question, use this sequence.
Query block: polyreactivity (PSR sort gate) for QDQLVESGGGLVQAGGSLRLSCAASGLIFPYNAMGWYRQAPGKERELVAAIDTRGSSTYYADSVKGRFTISRDNAKNTVYLQMNSLKPEDTAVYYCIPRSGRSPTGFRYWGQGTEVTVSS ?
Result block: high polyreactivity
